# maps each entry to its absolute recovery
assay: absolute recovery over mixed-bed multilayer solid-phase extraction; higher = better recovery; settings: wastewater effluent; enrichment method: SPE
Experimental readout: absolute recovery (%)

molecule="C#CC(C)(C)NC(=O)c1cc(Cl)cc(Cl)c1 [Propyzamide]" recorded_result=87.8
molecule="Cc1cc(=O)n(-c2ccccc2)n1C [Phenazon (=Antipyrin)]" recorded_result=91.4
molecule="C[NH+](C)CCOC(C)(c1ccccc1)c1ccccn1 (stereo unspecified)" recorded_result=94.8
molecule=Cc1ccc(-c2c(Cl)nc(C#N)n2S(=O)(=O)N(C)C)cc1 recorded_result=58
molecule="CC(C)(C)[NH2+]CC(O)COc1nsnc1N1CCOCC1 (stereo unspecified)" recorded_result=86.3
molecule="CCC(=[NH+]OCC=CCl)C1=C([O-])CC(C2CCOCC2)CC1=O (stereo unspecified)" recorded_result=92.9
molecule=CNC(=O)Oc1cccc2c1OC(C)(C)C2 recorded_result=94.7
molecule="Cc1cc(C)cc(OCC2CNC(=O)O2)c1 (stereo unspecified)" recorded_result=87.1
molecule=CC(C)c1ccc(N)cc1 recorded_result=80.1
molecule=Cc1cc(Cl)ccc1OCCCC(=O)[O-] recorded_result=97.5
molecule=O=C(Nc1ccc(F)cc1F)c1cccnc1Oc1cccc(C(F)(F)F)c1 recorded_result=88
molecule="COCCCOc1cc(CC(CC([NH3+])C(O)CC(C(=O)NCC(C)(C)C(N)=O)C(C)C)C(C)C)ccc1OC (stereo unspecified)" recorded_result=68.3
molecule="CC([NH3+])Cc1ccccc1 (stereo unspecified)" recorded_result=87.4
molecule="CC(=O)Nc1nnc(S([NH-])(=O)=O)s1 [Acetazolamide]" recorded_result=94.2
molecule=CCOC(=O)Nc1cccc(OC(=O)Nc2ccccc2)c1 recorded_result=106
molecule=CCCCc1oc2ccc(NS(C)(=O)=O)cc2c1C(=O)c1ccc(OCCC[NH+](CCCC)CCCC)cc1 recorded_result=84.1
molecule="CC1(C)SC(CNC(=O)C([NH3+])c2ccc(O)cc2)[NH2+]C1C(=O)[O-] (stereo unspecified)" recorded_result=17.8
molecule="CNC(=O)Oc1cc(C)c(S(C)=O)c(C)c1 (stereo unspecified) [Methiocarb-sulfoxide]" recorded_result=77.8
molecule=Cn1c(=O)c2c(ncn2C)n(C)c1=O recorded_result=94.5
molecule=O=c1[nH]c2c(c(=O)n1C1CCCCC1)CCC2 recorded_result=92
molecule=CC1=NNC(=O)N(N=Cc2cccnc2)C1 recorded_result=106
